Reference source for all entries: ChEMBL document CHEMBL3991601

Biological target: Cyclin-dependent kinase 12 (Homo sapiens); note: in the data inactive means no Kd found up to 30 µM
Sequence (Q9NYV4 whole entry): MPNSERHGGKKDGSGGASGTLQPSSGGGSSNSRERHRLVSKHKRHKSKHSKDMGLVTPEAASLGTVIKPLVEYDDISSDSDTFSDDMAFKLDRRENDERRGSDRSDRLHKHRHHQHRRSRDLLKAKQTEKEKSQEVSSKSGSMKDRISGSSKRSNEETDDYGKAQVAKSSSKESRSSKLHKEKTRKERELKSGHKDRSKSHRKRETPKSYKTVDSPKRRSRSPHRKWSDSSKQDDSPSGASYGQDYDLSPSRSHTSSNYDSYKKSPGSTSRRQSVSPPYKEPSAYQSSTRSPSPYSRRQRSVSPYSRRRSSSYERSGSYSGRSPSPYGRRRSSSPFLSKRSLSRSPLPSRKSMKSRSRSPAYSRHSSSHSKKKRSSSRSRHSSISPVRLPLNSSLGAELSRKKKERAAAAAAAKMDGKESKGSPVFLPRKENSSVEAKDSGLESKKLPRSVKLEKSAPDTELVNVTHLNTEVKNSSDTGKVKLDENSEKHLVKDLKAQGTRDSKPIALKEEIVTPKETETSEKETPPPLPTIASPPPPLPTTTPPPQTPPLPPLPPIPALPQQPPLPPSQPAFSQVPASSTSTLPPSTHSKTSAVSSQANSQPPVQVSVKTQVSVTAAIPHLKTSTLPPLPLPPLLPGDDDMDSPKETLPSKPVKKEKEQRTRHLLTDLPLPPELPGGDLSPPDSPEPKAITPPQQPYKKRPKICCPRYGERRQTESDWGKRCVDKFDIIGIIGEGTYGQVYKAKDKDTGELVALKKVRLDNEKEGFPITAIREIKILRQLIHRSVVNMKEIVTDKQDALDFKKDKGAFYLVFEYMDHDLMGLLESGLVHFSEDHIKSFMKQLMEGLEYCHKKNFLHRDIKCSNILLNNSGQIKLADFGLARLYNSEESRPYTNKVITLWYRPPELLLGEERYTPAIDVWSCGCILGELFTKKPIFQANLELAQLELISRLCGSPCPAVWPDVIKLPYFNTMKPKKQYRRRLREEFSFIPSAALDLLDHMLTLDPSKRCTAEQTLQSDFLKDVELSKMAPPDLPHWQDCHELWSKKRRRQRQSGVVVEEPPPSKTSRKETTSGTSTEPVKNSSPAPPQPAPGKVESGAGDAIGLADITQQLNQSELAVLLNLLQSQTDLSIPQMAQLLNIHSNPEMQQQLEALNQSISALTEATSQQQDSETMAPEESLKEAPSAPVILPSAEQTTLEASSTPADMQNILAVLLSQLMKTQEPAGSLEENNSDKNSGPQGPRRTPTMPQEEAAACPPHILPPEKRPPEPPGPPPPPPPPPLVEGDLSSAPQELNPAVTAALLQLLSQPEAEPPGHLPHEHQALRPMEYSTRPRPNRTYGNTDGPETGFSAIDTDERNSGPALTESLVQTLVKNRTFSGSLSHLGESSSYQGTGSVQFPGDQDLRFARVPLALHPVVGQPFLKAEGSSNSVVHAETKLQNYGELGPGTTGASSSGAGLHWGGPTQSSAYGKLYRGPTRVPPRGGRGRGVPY
Active and inactive are the calls of the source.
Classes to choose from: t = active, f = inactive

Please review the following examples before continuing.
MOLECULE: Cc1ccc(S(=O)(=O)Nc2nc3ccccc3nc2Nc2ccc3nsnc3c2)cc1
CATEGORY: f
//
MOLECULE: Cc1cc(-c2cc(O)ccc2Cl)cc2nnc(Nc3ccc(OCCN4CCCC4)cc3)nc12
CATEGORY: f
//
MOLECULE: CN1CCC(CNc2ccc3ncc(-c4cccc(OC(F)(F)F)c4)n3n2)CC1 [SGI-1776]
CATEGORY: f
//
MOLECULE: COc1cc(OC)c(/C=C/S(=O)(=O)Cc2ccc(OC)c(NCC(=O)O)c2)c(OC)c1 [RIGOSERTIB]
CATEGORY: f

Kindly consider the entry below.
Assay result, entry C[C@@H](c1ccc2nccn2c1)n1nnc2ncc(-c3cnn(C)c3)nc21 [SAVOLITINIB] — outcome?
f
